procedureSummary: Inhibition of replication of HCV 1b BK RNA in Huh7 cells
measuredAttribute: EC50 (µM)
Response body: numeric value in µM, unit text excluded.

Value lookup for EC50; key = "O=C(NCc1ccccc1Cl)Nc1ccsc1-c1nc(C(=O)O)c(O)c(=O)[nH]1" 3.1
